- System: 521955-158-R2-J5-PDC complex spheroid viability
- assay: Anticancer human tumor 521955-158-R2-J5-PDC patient-derived pancreatic carcinoma cell line growth inhibition [GQUAD]
- measurementConditions: second compound 0.0316 µM; first compound 0.000999 µM; stronger effect = lower value
testReadout: viability, T/C (%)
Give bare numbers, in %.

* CCc1c2c(nc3ccc(O)cc13)-c1cc3c(c(=O)n1C2)COC(=O)[C@]3(O)CC + Cc1cnc(CNC(=O)c2c(=O)c3ccc(N4CCCN(C)CC4)nc3n3c2sc2ccccc23)cn1 | 51.5
* CC[C@@]1(O)C(=O)OCc2c1cc1n(c2=O)Cc2cc3c(CN(C)C)c(O)ccc3nc2-1 + CN(C)c1ccc(Nc2c3ccc(NC(=O)CCN4CCCC4)cc3nc3cc(NC(=O)CCN4CCCC4)ccc23)cc1 | 106
* Cn1ncnc1[C@H]1c2n[nH]c(=O)c3cc(F)cc(c23)N[C@@H]1c1ccc(F)cc1 + CN(C)c1ccc(Nc2c3ccc(NC(=O)CCN4CCCC4)cc3nc3cc(NC(=O)CCN4CCCC4)ccc23)cc1 | 99.1

Input line: Jot down viability, T/C (521955-158-R2-J5-PDC complex spheroid viability) of Cc1[nH]c2ccccc2c1CCNCc1ccc(/C=C/C(=O)NO)cc1 + Cc1cnc(CNC(=O)c2c(=O)c3ccc(N4CCCN(C)CC4)nc3n3c2sc2ccccc23)cn1 .
Output line: 76.2

###

- System: 521955-158-R2-J5-PDC complex spheroid viability
- assay: Anticancer human tumor 521955-158-R2-J5-PDC cell line growth inhibition [GQUAD];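 note: spheroids exposed to agents for one week before reading; 100% = DMSO vehicle control viability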
- measurementConditions: second compound 3.16 µM; first compound 0.1 µM; stronger effect = lower value
testReadout: viability, T/C (%)
Numbers only, in %.

• O=C(c1cc(Cc2n[nH]c(=O)c3ccccc23)ccc1F)N1CCN(C(=O)C2CC2)CC1 + Cc1[nH]c2ccc(F)cc2c1-c1nc2c3cccnc3c3ncccc3c2[nH]1 = 104
• COc1cc(C2c3cc4c(cc3C(OC3OC5COC(C)OC5C(O)C3O)C3COC(=O)C23)OCO4)cc(OC)c1O (stereo unspecified) + Cc1[nH]c2ccc(F)cc2c1-c1nc2c3cccnc3c3ncccc3c2[nH]1 = 100
• CC(C)n1c(=O)n(C)c2cnc3cc(F)c(-c4ccc(OCCCN5CCCCC5)nc4)cc3c21 + CN(C)c1ccc(Nc2c3ccc(NC(=O)CCN4CCCC4)cc3nc3cc(NC(=O)CCN4CCCC4)ccc23)cc1 = 81
• Nc1ccn(C2OC(CO)C(O)C2(F)F)c(=O)n1 (stereo unspecified) + CN(C)c1ccc(Nc2c3ccc(NC(=O)CCN4CCCC4)cc3nc3cc(NC(=O)CCN4CCCC4)ccc23)cc1 = 52.8
• COc1cc(C2c3cc4c(cc3C(OC3OC5COC(C)OC5C(O)C3O)C3COC(=O)C23)OCO4)cc(OC)c1O (stereo unspecified) + CN(C)c1ccc(Nc2c3ccc(NC(=O)CCN4CCCC4)cc3nc3cc(NC(=O)CCN4CCCC4)ccc23)cc1 = 78.9

Field: viability, T/C. Fill in for each record below.
1. Nc1ccn(C2OC(CO)C(O)C2(F)F)c(=O)n1 (stereo unspecified) + Cc1cnc(CNC(=O)c2c(=O)c3ccc(N4CCCN(C)CC4)nc3n3c2sc2ccccc23)cn1
2. O=C(NO)c1cnc(N2CCN(S(=O)(=O)c3ccc4ccccc4c3)CC2)nc1 + Cc1cnc(CNC(=O)c2c(=O)c3ccc(N4CCCN(C)CC4)nc3n3c2sc2ccccc23)cn1
3. CC(C)(O)C1CCC(Nc2ccc3ncc(-c4cccc(C(F)(F)F)c4)n3n2)CC1 (stereo unspecified) + Cc1cnc(CNC(=O)c2c(=O)c3ccc(N4CCCN(C)CC4)nc3n3c2sc2ccccc23)cn1
4. COc1cccc2c1C(=O)c1c(O)c3c(c(O)c1C2=O)CC(O)(C(=O)CO)CC3OC1CC(N)C(O)C(C)O1 (stereo unspecified) + Cc1[nH]c2ccc(F)cc2c1-c1nc2c3cccnc3c3ncccc3c2[nH]1
5. CCCS(=O)(=O)Nc1ccc(F)c(C(=O)c2c[nH]c3ncc(-c4ccc(Cl)cc4)cc23)c1F + CN(C)c1ccc(Nc2c3ccc(NC(=O)CCN4CCCC4)cc3nc3cc(NC(=O)CCN4CCCC4)ccc23)cc1
6. CC1COCCN1c1cc(C2(S(C)(=N)=O)CC2)nc(-c2ccnc3[nH]ccc23)n1 (stereo unspecified) + CN(C)c1ccc(Nc2c3ccc(NC(=O)CCN4CCCC4)cc3nc3cc(NC(=O)CCN4CCCC4)ccc23)cc1

Output line:
[17.8, 17.4, 16.6, 65.6, 83.6, 78.4]

###

- Tested on: 521955-158-R2-J5-PDC complex spheroid viability
- assay: Anticancer human tumor 521955-158-R2-J5-PDC cell line growth inhibition [GQUAD];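 note: spheroids exposed to agents for one week before reading; 100% = DMSO vehicle control viability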
- measurementConditions: second compound 1 µM; first compound 0.316 µM; stronger effect = lower value
Lab note - cut at 30% for viability, T/C: Met if strictly below, Not met if not.

These solved cases illustrate the format of a correct answer.
* O=c1[nH]cc(F)c(=O)[nH]1 + Cc1cnc(CNC(=O)c2c(=O)c3ccc(N4CCCN(C)CC4)nc3n3c2sc2ccccc23)cn1 | Met
* O=c1[nH]cc(F)c(=O)[nH]1 + CN(C)c1ccc(Nc2c3ccc(NC(=O)CCN4CCCC4)cc3nc3cc(NC(=O)CCN4CCCC4)ccc23)cc1 | Not met
* C=CC(=O)N1CCN(c2nc(=O)n(-c3c(C)ccnc3C(C)C)c3nc(-c4c(O)cccc4F)c(F)cc23)C(C)C1 (stereo not given) + Cc1[nH]c2ccc(F)cc2c1-c1nc2c3cccnc3c3ncccc3c2[nH]1 | Not met
* CC(C)n1c(=O)n(C)c2cnc3cc(F)c(-c4ccc(OCCCN5CCCCC5)nc4)cc3c21 + Cc1[nH]c2ccc(F)cc2c1-c1nc2c3cccnc3c3ncccc3c2[nH]1 | Not met
* CC(C)n1c(=O)n(C)c2cnc3cc(F)c(-c4ccc(OCCCN5CCCCC5)nc4)cc3c21 + CN(C)c1ccc(Nc2c3ccc(NC(=O)CCN4CCCC4)cc3nc3cc(NC(=O)CCN4CCCC4)ccc23)cc1 | Not met
* Nc1ccn(C2OC(CO)C(O)C2(F)F)c(=O)n1 (stereo not given) + CN(C)c1ccc(Nc2c3ccc(NC(=O)CCN4CCCC4)cc3nc3cc(NC(=O)CCN4CCCC4)ccc23)cc1 | Not met
* CCc1c2c(nc3ccc(O)cc13)-c1cc3c(c(=O)n1C2)COC(=O)[C@]3(O)CC + Cc1[nH]c2ccc(F)cc2c1-c1nc2c3cccnc3c3ncccc3c2[nH]1 | Met
* CC1COCCN1c1cc(-c2ccnn2C)c2ccnc(-c3ccn[nH]3)c2n1 (stereo not given) + Cc1cnc(CNC(=O)c2c(=O)c3ccc(N4CCCN(C)CC4)nc3n3c2sc2ccccc23)cn1 | Met

Input line: Criterion: viability, T/C strictly below 30%. Is it met by C=CC(=O)N1CCN(c2nc(=O)n(-c3c(C)ccnc3C(C)C)c3nc(-c4c(O)cccc4F)c(F)cc23)C(C)C1 (stereo not given) + CN(C)c1ccc(Nc2c3ccc(NC(=O)CCN4CCCC4)cc3nc3cc(NC(=O)CCN4CCCC4)ccc23)cc1 ?
Output line: Not met

Input line: Criterion: viability, T/C strictly below 30%. Is it met by CCCS(=O)(=O)Nc1ccc(F)c(C(=O)c2c[nH]c3ncc(-c4ccc(Cl)cc4)cc23)c1F + Cc1cnc(CNC(=O)c2c(=O)c3ccc(N4CCCN(C)CC4)nc3n3c2sc2ccccc23)cn1 ?
Output line: Met

Input line: Criterion: viability, T/C strictly below 30%. Is it met by Cn1ncnc1[C@H]1c2n[nH]c(=O)c3cc(F)cc(c23)N[C@@H]1c1ccc(F)cc1 + CN(C)c1ccc(Nc2c3ccc(NC(=O)CCN4CCCC4)cc3nc3cc(NC(=O)CCN4CCCC4)ccc23)cc1 ?
Output line: Not met

Input line: Criterion: viability, T/C strictly below 30%. Is it met by CC(C)(O)C1CCC(Nc2ccc3ncc(-c4cccc(C(F)(F)F)c4)n3n2)CC1 (stereo not given) + Cc1cnc(CNC(=O)c2c(=O)c3ccc(N4CCCN(C)CC4)nc3n3c2sc2ccccc23)cn1 ?
Output line: Met

Input line: Criterion: viability, T/C strictly below 30%. Is it met by CCc1c2c(nc3ccc(O)cc13)-c1cc3c(c(=O)n1C2)COC(=O)[C@]3(O)CC + CN(C)c1ccc(Nc2c3ccc(NC(=O)CCN4CCCC4)cc3nc3cc(NC(=O)CCN4CCCC4)ccc23)cc1 ?
Output line: Met

###

- Test system: 521955-158-R2-J5-PDC complex spheroid viability
- assay: Anticancer human tumor 521955-158-R2-J5-PDC cell line growth inhibition [GQUAD];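 note: spheroids exposed to agents for one week before reading; 100% = DMSO vehicle control viability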
- measurementConditions: second compound 0.1 µM; first compound 0.0316 µM; stronger effect = lower value
Lab note - cut at 70% for viability, T/C: MET if strictly below, NOT MET if not.

These solved cases illustrate the format of a correct answer.
* O=c1[nH]cc(F)c(=O)[nH]1 + Cc1cnc(CNC(=O)c2c(=O)c3ccc(N4CCCN(C)CC4)nc3n3c2sc2ccccc23)cn1 | MET
* COc1ncnc(C2CC2)c1-c1ncc2cnn(Cc3ccc(-c4nc(C(F)(F)F)cn4C(C)C)cc3)c2n1 + CN(C)c1ccc(Nc2c3ccc(NC(=O)CCN4CCCC4)cc3nc3cc(NC(=O)CCN4CCCC4)ccc23)cc1 | NOT MET
* CC(C)(O)C1CCC(Nc2ccc3ncc(-c4cccc(C(F)(F)F)c4)n3n2)CC1 (stereo not given) + CN(C)c1ccc(Nc2c3ccc(NC(=O)CCN4CCCC4)cc3nc3cc(NC(=O)CCN4CCCC4)ccc23)cc1 | NOT MET
* O=C(c1cc(Cc2n[nH]c(=O)c3ccccc23)ccc1F)N1CCN(C(=O)C2CC2)CC1 + Cc1[nH]c2ccc(F)cc2c1-c1nc2c3cccnc3c3ncccc3c2[nH]1 | NOT MET
* O=C(NO)c1cnc(N2CCN(S(=O)(=O)c3ccc4ccccc4c3)CC2)nc1 + Cc1cnc(CNC(=O)c2c(=O)c3ccc(N4CCCN(C)CC4)nc3n3c2sc2ccccc23)cn1 | MET
* O=C(c1cc(Cc2n[nH]c(=O)c3ccccc23)ccc1F)N1CCN(C(=O)C2CC2)CC1 + Cc1cnc(CNC(=O)c2c(=O)c3ccc(N4CCCN(C)CC4)nc3n3c2sc2ccccc23)cn1 | MET
* COc1cccc2c1C(=O)c1c(O)c3c(c(O)c1C2=O)CC(O)(C(=O)CO)CC3OC1CC(N)C(O)C(C)O1 (stereo not given) + Cc1[nH]c2ccc(F)cc2c1-c1nc2c3cccnc3c3ncccc3c2[nH]1 | NOT MET
* CC(C)(O)C1CCC(Nc2ccc3ncc(-c4cccc(C(F)(F)F)c4)n3n2)CC1 (stereo not given) + Cc1cnc(CNC(=O)c2c(=O)c3ccc(N4CCCN(C)CC4)nc3n3c2sc2ccccc23)cn1 | MET

Input line: Criterion: viability, T/C strictly below 70%. Is it met by COc1cccc2c1C(=O)c1c(O)c3c(c(O)c1C2=O)CC(O)(C(=O)CO)CC3OC1CC(N)C(O)C(C)O1 (stereo not given) + Cc1cnc(CNC(=O)c2c(=O)c3ccc(N4CCCN(C)CC4)nc3n3c2sc2ccccc23)cn1 ?
Output line: MET

The origin of these recorded values is PubChem BioAssay AID2060495.
